Experiment: Selectivity index, ratio of CC50 for human KB cells to IC50 for Plasmodium falciparum VS1
Type: functional

Smiles Representation: OC[C@H]1O[C@@H](n2cnc3/c(=N\OCc4ccccc4)[nH]cnc32)[C@H](O)[C@@H]1O
Ratio CC50/IC50: 62.6
//
Smiles Representation: NNc1ncnc2c1ncn2[C@@H]1O[C@H](CO)[C@@H](O)[C@H]1O
Ratio CC50/IC50: <1
//
Smiles Representation: OC[C@H]1O[C@@H](n2cnc3/c(=N\O)[nH]cnc32)[C@H](O)[C@@H]1O
Ratio CC50/IC50: 5.2
//
Smiles Representation: CN(N)c1nc(N)nc2c1ncn2[C@@H]1O[C@H](CO)[C@@H](O)[C@H]1O
Ratio CC50/IC50: 5008
//
Smiles Representation: CN(N)c1ncnc2c1ncn2[C@@H]1O[C@H](CO)[C@@H](O)[C@H]1O
Ratio CC50/IC50: 4.5
//
Smiles Representation: NNc1ncnc2[nH]cnc12
Ratio CC50/IC50: 2.6

###

Test: Selectivity index, ratio of CC50 for human KB cells to IC50 for Plasmodium falciparum VS1
Format: functional
# note: exactly 8 is not below, so it is F; use T for Ratio CC50/IC50 strictly under it

Smiles Representation: c1ccc(NNc2ncnc3[nH]cnc23)cc1
Group Label: F

Smiles Representation: ONc1ncnc2[nH]cnc12
Group Label: F

Smiles Representation: Nc1nc2c(ncn2[C@@H]2O[C@H](CO)[C@@H](O)[C@H]2O)/c(=N\O)[nH]1
Group Label: F

Smiles Representation: NNc1nc(N)nc2c1ncn2[C@@H]1O[C@H](CO)[C@@H](O)[C@H]1O
Group Label: F

Smiles Representation: OC[C@H]1O[C@@H](n2cnc3c(NNc4ccccc4)ncnc32)[C@H](O)[C@@H]1O
Group Label: F

Smiles Representation: Nc1nc2[nH]cnc2/c(=N\O)[nH]1
Group Label: T

Smiles Representation: CO/N=c1/[nH]cnc2c1ncn2[C@@H]1O[C@H](CO)[C@@H](O)[C@H]1O
Group Label: T

Smiles Representation: CO/N=c1/[nH]cnc2[nH]cnc12
Group Label: T

Smiles Representation: CON(C)c1ncnc2c1ncn2[C@@H]1O[C@H](CO)[C@@H](O)[C@H]1O
Group Label: T

Smiles Representation: NNc1nc(N)nc2[nH]cnc12
Group Label: F

Smiles Representation: CO/N=c1/[nH]c(N)nc2c1ncn2[C@@H]1O[C@H](CO)[C@@H](O)[C@H]1O
Group Label: T
